Biological target: DDR2 (Homo sapiens, UniProt Q16832)
Construct: purchased Life Technologies
Sequence (Q16832 22-855): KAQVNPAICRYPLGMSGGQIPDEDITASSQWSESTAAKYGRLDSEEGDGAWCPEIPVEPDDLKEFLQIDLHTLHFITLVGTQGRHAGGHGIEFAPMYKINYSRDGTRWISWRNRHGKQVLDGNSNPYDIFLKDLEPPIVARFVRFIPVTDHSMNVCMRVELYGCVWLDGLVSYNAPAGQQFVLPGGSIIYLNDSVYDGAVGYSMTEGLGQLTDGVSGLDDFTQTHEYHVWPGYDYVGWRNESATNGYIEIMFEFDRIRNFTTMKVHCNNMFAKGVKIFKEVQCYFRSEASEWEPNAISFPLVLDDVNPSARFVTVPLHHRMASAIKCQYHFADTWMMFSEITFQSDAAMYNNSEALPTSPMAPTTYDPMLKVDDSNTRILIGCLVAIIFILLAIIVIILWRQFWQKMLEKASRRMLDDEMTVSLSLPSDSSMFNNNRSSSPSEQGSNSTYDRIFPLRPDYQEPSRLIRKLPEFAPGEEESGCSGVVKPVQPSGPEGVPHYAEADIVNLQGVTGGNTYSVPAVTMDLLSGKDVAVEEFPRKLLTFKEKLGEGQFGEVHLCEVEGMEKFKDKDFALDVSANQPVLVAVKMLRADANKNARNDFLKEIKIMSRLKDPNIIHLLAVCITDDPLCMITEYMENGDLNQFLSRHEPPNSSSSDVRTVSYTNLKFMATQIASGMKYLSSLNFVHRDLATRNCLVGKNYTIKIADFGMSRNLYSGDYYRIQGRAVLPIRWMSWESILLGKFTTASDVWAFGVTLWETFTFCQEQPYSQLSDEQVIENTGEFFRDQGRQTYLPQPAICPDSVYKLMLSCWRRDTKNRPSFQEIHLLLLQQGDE
Test: LanthaScreen Europium Kinase Binding assay, DDR2
Conditions: 5 nM DDR2, 10 nM Kinase Tracer 178, 1 h at rt; Ki from IC50 by Cheng-Prusoff; read-out: Ki DDR2
pKi: −log10 of the molar value.
Property: pKi; scope: individual compounds

smilesString: O=C(Nc1cc(CO)cc(C(F)(F)F)c1)NC1CC2(C1)CN(C(=O)c1cnn3ccsc13)C2
pKi: 7.60 to 8.30

smilesString: CC(C)(C)c1cc(NC(=O)NC2CC3(C2)CN(C(=O)c2cnn4ccncc24)C3)no1
pKi: 7.00 to 7.60

smilesString: Cn1ccn2ncc(C(=O)N3CC4(CC(NC(=O)Nc5cc(C(F)(F)F)ccc5F)C4)C3)c12
pKi: 7.60 to 8.30

Query block: // query pKi value for entry Cc1ccc(-n2nc(C(C)(C)C)cc2NC(=O)NC2CC3(C2)CN(C(=O)c2cnn4ccn(C)c24)C3)cc1
Result block: 7.60 to 8.30

Query block: // query pKi value for entry O=C(Nc1cccc(C(F)(F)F)c1)NC1CC2(C1)CN(C(=O)c1cnc3cccnn13)C2
Result block: 7.60 to 8.30

Query block: // query pKi value for entry O=C(Nc1cc(C(F)(F)F)cnn1)NC1CC2(C1)CN(c1cnc3[nH]ncc3c1)C2
Result block: 7.60 to 8.30

Query block: // query pKi value for entry N#Cc1cc(NC(=O)NC2CC3(C2)CN(C(=O)c2cnn4ccncc24)C3)cc(C(F)(F)F)c1
Result block: > 8.30

Query block: // query pKi value for entry CN(C(=O)Nc1cc(OC(F)(F)F)ccn1)C1CC2(C1)CN(C(=O)c1cnn3ccncc13)C2
Result block: 7.00 to 7.60

Query block: // query pKi value for entry CN(C(=O)Nc1cncc(OC(F)(F)F)c1)C1CC2(C1)CN(C(=O)c1cnn3ccncc13)C2
Result block: 7.00 to 7.60

Query block: // query pKi value for entry CN(C(=O)Nc1cccc(S(F)(F)(F)(F)F)c1)C1CC2(C1)CN(C(=O)c1cnn3ccn(C)c13)C2
Result block: > 8.30

Query block: // query pKi value for entry CN(C(=O)Nc1cccc(S(F)(F)(F)(F)F)c1)C1CC2(C1)CN(C(=O)c1cnn3ccn(CCO)c13)C2
Result block: > 8.30

Query block: // query pKi value for entry CN(C(=O)Nc1cc(C(C)(C)C(F)(F)F)on1)C1CC2(C1)CN(C(=O)c1cnn3ccsc13)C2
Result block: 7.60 to 8.30

###

Biological target: DDR2 (Homo sapiens)
Construct: purchased Life Technologies
Assay: LanthaScreen Europium Kinase Binding assay, DDR2
Conditions: 5 nM DDR2, 10 nM Kinase Tracer 178, 1 h at rt; Ki from IC50 by Cheng-Prusoff; read-out: Ki DDR2
pKi: −log10 of the molar value.
measuredAttribute: pKi

compound: CN(C(=O)Nc1cc(C(F)(F)F)cs1)C1CC2(C1)CN(C(=O)c1cnn3ccn(C)c13)C2 [Example 291]
assayResult: 7.60 to 8.30
--
compound: CN(C(=O)Nc1cc(C2CC2)ccn1)C1CC2(C1)CN(C(=O)c1cnn3ccn(C)c13)C2 [Example 156]
assayResult: 7.60 to 8.30
--
compound: Cn1cc(C(F)(F)F)cc(NC(=O)NC2CC3(C2)CN(C(=O)c2cnn4ccsc24)C3)c1=O [Example 58]
assayResult: 7.60 to 8.30

Query block: // query pKi value for entry COc1ncc(Cl)cc1NC(=O)NC1CC2(C1)CN(C(=O)c1cnn3ccn(C)c13)C2 [Example 83]
Result block: 7.60 to 8.30

Query block: // query pKi value for entry Cn1ccn2ncc(C(=O)N3CC4(CC(NC(=O)Nc5cccc(SC(F)(F)F)c5)C4)C3)c12 [Example 125]
Result block: > 8.30

Query block: // query pKi value for entry COc1c(CO)cc(C(F)(F)F)cc1NC(=O)NC1CC2(C1)CN(c1cnc3[nH]ncc3c1)C2 [Example 312]
Result block: 7.60 to 8.30

Query block: // query pKi value for entry COc1ccc(OC(F)(F)F)cc1NC(=O)NC1CC2(C1)CN(C(=O)c1cnn3ccsc13)C2 [Example 23]
Result block: > 8.30
